Test: chemical genetic growth profiling, strain panel (AID 1159580);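 further: tested at 20 µM; growth read once vehicle control cultures reached saturation at 30 °C; 1 = growth at the plate median or of vehicle wells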
Experimental context: S. cerevisiae deletion strains, growth OD, locus YEL061C, strain CIN8 (second series), stronger effect = lower value
About 2,000 (36%) of roughly 5,500 compounds were called active. Roughly 18% stayed inconclusive and do not appear here. This is one part of the list.
Quantity measured: normalized growth
In your answer, state the number alone without any accompanying words.

Some solved cases for reference:
[
  {
    "Molecule": "C[C@]12CCC(=O)C=C1CCC1C2CC[C@@]2(C)C1CC[C@@H]2O (some centres not stated)",
    "normalized growth": 0.988
  },
  {
    "Molecule": "Cc1cc(O)c(C=O)c(O)c1C(=O)O",
    "normalized growth": 0.999
  },
  {
    "Molecule": "CCC(=O)O[C@H]1CCC2C3CCC4=CC(=O)CC[C@]4(C)C3CC[C@@]21C (some centres not stated)",
    "normalized growth": 0.968
  },
  {
    "Molecule": "CCOC(=O)c1c(C)cc(O)c(C=O)c1O",
    "normalized growth": 0.643
  },
  {
    "Molecule": "CN1CCc2cc3c(cc2[C@H]1C1OC(=O)c2c1ccc1c2OCO1)OCO3 (some centres not stated)",
    "normalized growth": 0.973
  },
  {
    "Molecule": "CCOC(=O)c1c(C)c(Cl)c(O)c(Cl)c1O",
    "normalized growth": 0.171
  }
]

Lab note: next molecule to report on.
Sample N=c1ccn2c(n1)O[C@@H]1C2O[C@H](CO)[C@H]1O (some centres not stated) — what was its normalized growth?
0.984

* * *

Test: chemical genetic growth profiling, strain panel (AID 1159580)
Experimental context: S. cerevisiae deletion strains, growth OD, locus YMR205C, strain PFK2 (second series), stronger effect = lower value
The campaign covered roughly 5,500 compounds. About 2,000 (36%) were called active. Not shown: some 18% with an inconclusive outcome. The list shows a part of the results.
Overview of reported normalized growth across a group of molecules:
In your answer, state the number alone without any accompanying words.

Some solved cases for reference:
[
  {
    "Molecule": "COc1ccc(NNC(=O)c2sc3ccccc3c2Cl)cc1",
    "normalized growth": 0.659
  },
  {
    "Molecule": "CC(C)(C)CN/C(C#N)=C(/C#N)NCc1cccc(Cl)c1",
    "normalized growth": 0.973
  },
  {
    "Molecule": "CCOC(=O)CSC(=S)NCc1ccc(C)cc1",
    "normalized growth": 0.965
  },
  {
    "Molecule": "COc1ccc(/C=C2\\CSc3ccc(F)cc3C2=O)cc1",
    "normalized growth": 0.942
  },
  {
    "Molecule": "Cc1ccc(OCC2SCCN2C(=O)c2ccc(C(F)(F)F)cc2)c([N+](=O)[O-])c1 (stereo unspecified)",
    "normalized growth": 1
  },
  {
    "Molecule": "Cc1ccc(/C=C2\\CSc3ccc(F)cc3C2=O)cc1",
    "normalized growth": 0.911
  },
  {
    "Molecule": "Cc1cc(C(=O)Nc2ccc(Cl)cc2)nn1C(C)(C)C",
    "normalized growth": 0.966
  },
  {
    "Molecule": "O=c1c(Sc2ccc(Cl)cc2)c(Sc2ccc(Cl)cc2)c1=O",
    "normalized growth": 0.241
  }
]

Sample O=C(CSc1nnnn1-c1ccccc1)c1ccccc1 — what was its normalized growth?
0.696

Query CC(=O)CSc1nnc(-c2ccc(C(C)(C)C)cc2)n1-c1ccc(Cl)cc1 next
0.97

Query N#Cc1ccc(S(=O)(=O)Nc2ccccc2Oc2ccc(Cl)cc2Cl)cc1 next
0.972

* * *

Test: chemical genetic growth profiling, strain panel (AID 1159580);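 further: tested at 20 µM; growth read once vehicle control cultures reached saturation at 30 °C; 1 = growth at the plate median or of vehicle wells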
Experimental context: S. cerevisiae deletion strains, growth OD, locus YOR001W, strain rrp6, stronger effect = lower value
Among all 5,500 compounds or so, about 2,000 (36%) were called active. Another 18% or so got no clear call; they are omitted. Some of the results follow.
Quantity measured: normalized growth
In your answer, state the number alone without any accompanying words.

[
  {
    "Compound": "CCC(=O)O[C@H]1CCC2C3CCC4=CC(=O)CC[C@]4(C)C3CC[C@@]21C (stereo partly specified)",
    "Assay value": 0.971
  },
  {
    "Compound": "CCOC(=O)CCC(=O)O[C@H]1[C@H](O[C@@H]2[C@@H](C)[C@H](O[C@H]3C[C@@](C)(OC)[C@@H](O)[C@H](C)O3)[C@@H](C)C(=O)O[C@H](CC)[C@@](C)(O)[C@H](O)[C@@H](C)C(=O)[C@H](C)C[C@@]2(C)O)O[C@H](C)C[C@@H]1N(C)C",
    "Assay value": 1
  },
  {
    "Compound": "Cc1cc(O)c(C=O)c(O)c1C(=O)O",
    "Assay value": 1.02
  },
  {
    "Compound": "Cc1cccc(C)c1OCC(C)N (stereo unspecified)",
    "Assay value": 0.994
  },
  {
    "Compound": "COc1cc(NS(=O)(=O)c2ccc(N)cc2)nc(OC)n1",
    "Assay value": 0.988
  }
]

Lab note: next compound to report on.
Sample Cc1[nH]c(C)c(Cl)c(=O)c1Cl — what was its normalized growth?
1.01

* * *

Test: chemical genetic growth profiling, strain panel (AID 1159580);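 further: tested at 20 µM; growth read once vehicle control cultures reached saturation at 30 °C; 1 = growth at the plate median or of vehicle wells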
Experimental context: S. cerevisiae deletion strains, growth OD, locus YOR270C, strain vph1
Out of some 5,500 compounds screened, about 2,000 (36%) were called active. Another 18% or so got no clear call; they are omitted. No stated cut-off is given here; in the data, active means normalized growth mostly below about 0.91 (no sharp cut-off); inconclusive means no clear call, values can overlap the other calls; inactive means mostly above about 0.92. This is one part of the list.
Classes to choose from: active, inactive

These recorded examples may help you get a feel for the data.
[
  {
    "Compound": "O=C(O)c1cc2ccccc2[nH]1",
    "Category label": "inactive"
  },
  {
    "Compound": "COc1cc(O)c(C(=O)/C=C/c2ccccc2)c(OC)c1",
    "Category label": "inactive"
  },
  {
    "Compound": "C=C1C2CC[C@H]3[C@]4(C)C[C@H](OC5OC(CO)C(OS(=O)(=O)O)C(OS(=O)(=O)O)C5OC(=O)CC(C)C)C[C@@H](C(=O)O)[C@H]4CC[C@]3(C2)[C@H]1O (stereo not given in full)",
    "Category label": "inactive"
  },
  {
    "Compound": "CC(=O)OCC(=O)[C@H]1CCC2C3CCC4=CC(=O)CC[C@]4(C)C3CC[C@@]21C (stereo not given in full)",
    "Category label": "active"
  }
]

Assay result, entry CC(C(=O)O)c1ccc(-c2ccccc2)c(F)c1 (stereo not given) — outcome?
inactive

* * *

Test: chemical genetic growth profiling, strain panel (AID 1159580);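 further: tested at 20 µM; growth read once vehicle control cultures reached saturation at 30 °C; 1 = growth at the plate median or of vehicle wells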
Experimental context: S. cerevisiae deletion strains, growth OD, locus YML124C, strain tub3, stronger effect = lower value
Screen size: about 5,500 compounds; about 2,000 (36%) were called active. Roughly 18% stayed inconclusive and do not appear here. This is one part of the list.
Quantity measured: normalized growth
In your answer, state the number alone without any accompanying words.

Some solved cases for reference:
[
  {
    "Compound": "CCN(CC)CCNC(=O)c1cc(Br)c(N)cc1OC",
    "normalized growth": 0.98
  },
  {
    "Compound": "C[C@H]1CC2C([C@@H](O)C[C@@]3(C)C2CC[C@]3(O)C(=O)CO)[C@@]2(C)C=CC(=O)C=C12 (stereo partly drawn)",
    "normalized growth": 1.01
  },
  {
    "Compound": "CCOC(=O)C1(O)Oc2cc(OC)cc(OC)c2C(=O)C1c1ccccc1 (stereo not drawn)",
    "normalized growth": 0.977
  },
  {
    "Compound": "CC(Oc1ccccc1)C(=O)N[C@@H]1C(=O)N2[C@@H]1SC(C)(C)[C@@H]2C(=O)O (stereo partly drawn)",
    "normalized growth": 1.02
  },
  {
    "Compound": "COc1cc2c(cc1OC)C1C(=O)c3c(OC)cc4c(c3OC1CO2)CCC(C)(C)O4 (stereo not drawn)",
    "normalized growth": 0.99
  },
  {
    "Compound": "O=C(O)C1(O)C[C@@H](O)C(O)[C@H](O)C1 (stereo partly drawn)",
    "normalized growth": 1.01
  },
  {
    "Compound": "CC(C)CC(NC(=O)C(Cc1ccccc1)NC(=O)CNC(=O)CNC(=O)C(N)Cc1ccc(O)cc1)C(=O)O (stereo not drawn)",
    "normalized growth": 0.998
  },
  {
    "Compound": "CC1/C(=N\\O)C[C@@H]2C[C@H]1C2(C)C (stereo partly drawn)",
    "normalized growth": 1.01
  },
  {
    "Compound": "CN(C)CC/C=C1\\c2ccccc2Sc2ccc(Cl)cc21",
    "normalized growth": 1.02
  },
  {
    "Compound": "CS(=O)(=O)c1ccc(C2=C(c3ccccc3)C(=O)OC2)cc1",
    "normalized growth": 0.989
  }
]

Sample CCS(=O)CCSP(=O)(OC)OC (stereo not drawn) — what was its normalized growth?
1.01

Query NCCSSCCN next
1

Query COc1cc2c(cc1OC)[C@@H]1C(=O)c3ccc(OC)c(CC=C(C)C)c3O[C@@H]1CO2 next
1.01

Query COC1=C(OC)C(=O)C(C/C=C(\C)CC/C=C(\C)CC/C=C(\C)CC/C=C(/C)CC/C=C(\C)CC/C=C(\C)CC/C=C(\C)CC/C=C(\C)CC/C=C(\C)CCC=C(C)C)=C(C)C1=O next
0.99

Query CC1=C(CC(=O)O)c2cc(F)ccc2/C1=C\c1ccc(S(C)=O)cc1 (stereo not drawn) next
1.01
